Each entry below carries its reported relative viability.
Test system: LOU-NH91
test: relative viability (nuclei count vs DMSO), 5 days (fraction); higher = more cells survive
measurementParameters: first compound 0.01 µM
Enter the number alone.

Consider the reported relative viability for these molecules:
molecule: CCN(CC)CCCCNc1ncc2cc(-c3cc(OC)cc(OC)c3)c(NC(=O)NC(C)(C)C)nc2n1 + COc1cccc2cc(-c3nc([C@H]4CC[C@H](C(=O)O)CC4)n4ncnc(N)c34)[nH]c12 [OSI-027] (partner 0.5 µM)
measureName: relative viability
numericValue: 0.672
//
molecule: O=c1cc(N2CCOCC2)oc2c(-c3cccc4c3sc3ccccc34)cccc12 + CCNC(=O)c1noc(-c2cc(C(C)C)c(O)cc2O)c1-c1ccc(CN2CCOCC2)cc1 [Luminespib] (partner 0.01 µM)
measureName: relative viability
numericValue: 0.352
//
molecule: O=c1cc(N2CCOCC2)oc2c(-c3cccc4c3sc3ccccc34)cccc12 + O=C(c1cc(Cc2n[nH]c(=O)c3ccccc23)ccc1F)N1CCN(C(=O)C2CC2)CC1 [Olaparib] (partner 8 µM)
measureName: relative viability
numericValue: 0.855

Next, consider the following molecule.
Query: Please give the measured relative viability for this molecule: CCN(CC)CCCCNc1ncc2cc(-c3cc(OC)cc(OC)c3)c(NC(=O)NC(C)(C)C)nc2n1 + O=C(c1cc(Cc2n[nH]c(=O)c3ccccc23)ccc1F)N1CCN(C(=O)C2CC2)CC1 [Olaparib] (partner 8 µM)
Response: 0.895

----------
System: SK-MES-1
test: relative viability (nuclei count vs DMSO), 5 days (fraction); higher = more cells survive
measurementParameters: first compound 0.08 µM
// NB: equality with 0.8 counts as 0 (no); only relative viability strictly below is 1 (yes)

Some solved entries appear below for comparison.
compound: O=c1cc(-c2cccc3c2Sc2ccccc2S3)oc(N2CCOCC2)c1 + COc1cccc2cc(-c3nc([C@H]4CC[C@H](C(=O)O)CC4)n4ncnc(N)c34)[nH]c12 [OSI-027] (partner 0.5 µM)
testedOn: SK-MES-1
assignedClass: 1 (yes)
--
compound: O=c1cc(-c2cccc3c2Sc2ccccc2S3)oc(N2CCOCC2)c1 + CCNC(=O)c1noc(-c2cc(C(C)C)c(O)cc2O)c1-c1ccc(CN2CCOCC2)cc1 [Luminespib] (partner 0.01 µM)
testedOn: SK-MES-1
assignedClass: 1 (yes)
--
compound: COc1nc(C)cnc1NS(=O)(=O)c1cccnc1-c1ccc(-c2nnco2)cc1 [Zibotentan] + CC(=O)c1c(C)c2cnc(Nc3ccc(N4CCNCC4)cn3)nc2n(C2CCCC2)c1=O [Palbociclib] (partner 0.5 µM)
testedOn: SK-MES-1
assignedClass: 1 (yes)
--
compound: COc1nc(C)cnc1NS(=O)(=O)c1cccnc1-c1ccc(-c2nnco2)cc1 [Zibotentan] + Cc1nc(NC(=O)N2CCC[C@H]2C(N)=O)sc1-c1ccnc(C(C)(C)C(F)(F)F)c1 [Alpelisib] (partner 2 µM)
testedOn: SK-MES-1
assignedClass: 0 (no)

For the next question, use this compound.
Query: I'd appreciate it if you could check whether O=c1cc(-c2cccc3c2Sc2ccccc2S3)oc(N2CCOCC2)c1 + Cc1cc(Nc2cc(N3CCN(C)CC3)nc(Sc3ccc(NC(=O)C4CC4)cc3)n2)n[nH]1 [Tozasertib] (partner 0.1 µM) has relative viability smaller than 0.8.
Response: 0 (no)
